- Tested On: Claudin 18.2 (CLDN18.2), expressed on CHOS-CLDN 18.2 / HEK293-CLDN 18.2 / HCC827-CLDN 18.2 cells (human, UniProt P56856 1-261)
- Run Description: cell ELISA
Note to self: EC50 under 0.2 µg/mL means T, ties and anything higher get F.

Binder: QP14431442 (antibody, V domains shown) VH: QVQLVQSGAEVKKPGASVKVSCKASGYAFSSYWMNWVRQAPGQGLEWMGQIYPGNGDTTYNGKFKGRVTMTRDTSTSTVYMELSSLRSEDTAVYYCARFVKGNAMDYWGQGTLVTVSS VL: DIVMTQSPDSLAVSLGERATISCKSSQSLLNSGNQKNYLTWYQQKPGQPPKMLIYWASTRESGVPDRFSGSGSGIDFTLTISSVQAEDVAVYYCQNAYSYPFTFGQGTKLEIK
Classification: T
--
Binder: QP14571453 (antibody, V domains shown) VH: QVQLVQSGAEVKKPGASVKVSCKASGYTFTNYFVHWVRQAPGQGLEWIGYINPYNDDTKYNEKFKGRVTLTRDTSTSTVYMELSSLRSEDTAVYYCLSLRFFAYWGQGTLVTVSS VL: DIVMTQSPDSLAVSLGERATISCKSSQSLLNSGNQKNYLTWYQQKPGQAPKLLIYWASTRESGVPDRFSGSGSGTDFTLTISSLQAEDVAVYYCQNDYSYPLTFGGGTKVEIK
Classification: F
--
Binder: QP201202 (antibody, V domains shown) VH: EVQLQQSGPELVKPGASVKMSCKASGYTFTNYFVHWVKQKPGQGLEWIGYINPYNDDTKYNEKFKGKATLTSDKSSSTAYMDLSSLTSEDSAVYYCLSLRFFAYWGQGTLVTVSA VL: DIVMTQSPSSLTVTAGEKVTMSCKSSQSLLNSGNQKNYLTWYQQKPGQAPKLLIYWASTRESGVPDRFIGSGSGTDFTLTISHVQAEDLAVYFCQNDYSYPLTFGAGTNLELK
Classification: F
--
Binder: QP14581452 (antibody, V domains shown) VH: QVQLVQSGAEVKKPGASVKVSCKASGYTFTNYFVHWVKQAPGQGLEWIGYINPYNDDTKYNEKFKGKATLTRDTSTSTVYMELSSLRSEDTAVYYCLSLRFFAYWGQGTLVTVSS VL: DIVMTQSPDSLAVSLGERATINCKSSQSLLNSGNQKNYLTWYQQKPGQPPKLLIYWASTRESGVPDRFSGSGSGTDFTLTISSLQAEDVAVYYCQNDYSYPLTFGGGTKVEIK
Classification: F
--
Binder: QP14571452 (antibody, V domains shown) VH: QVQLVQSGAEVKKPGASVKVSCKASGYTFTNYFVHWVRQAPGQGLEWIGYINPYNDDTKYNEKFKGRVTLTRDTSTSTVYMELSSLRSEDTAVYYCLSLRFFAYWGQGTLVTVSS VL: DIVMTQSPDSLAVSLGERATINCKSSQSLLNSGNQKNYLTWYQQKPGQPPKLLIYWASTRESGVPDRFSGSGSGTDFTLTISSLQAEDVAVYYCQNDYSYPLTFGGGTKVEIK
Classification: F
--
Binder: QP14571455 (antibody, V domains shown) VH: QVQLVQSGAEVKKPGASVKVSCKASGYTFTNYFVHWVRQAPGQGLEWIGYINPYNDDTKYNEKFKGRVTLTRDTSTSTVYMELSSLRSEDTAVYYCLSLRFFAYWGQGTLVTVSS VL: DIVMTQSPDSLAVSLGERATISCKSSQSLLNSGNQKNYLTWYQQKPGQAPKLLIYWASTRESGVPDRFIGSGSGTDFTLTISSVQAEDVAVYFCQNDYSYPLTFGGGTKVEIK
Classification: F
--
Binder: QP14581453 (antibody, V domains shown) VH: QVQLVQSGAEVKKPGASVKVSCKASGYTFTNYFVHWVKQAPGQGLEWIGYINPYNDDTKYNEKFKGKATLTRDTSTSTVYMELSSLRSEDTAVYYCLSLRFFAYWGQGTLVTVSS VL: DIVMTQSPDSLAVSLGERATISCKSSQSLLNSGNQKNYLTWYQQKPGQAPKLLIYWASTRESGVPDRFSGSGSGTDFTLTISSLQAEDVAVYYCQNDYSYPLTFGGGTKVEIKR
Classification: T
